Origin of measurements: PubChem BioAssay (EPA / NIEHS)

- Method description: APR_HepG2_P-H2AX_72hr: Apredica 72-hour HepG2 Assay for H2AX Phosphorylation (AID 2282916);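 further: phospho-histone H2A.x immunostain intensity per cell marking DNA damage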
- Condition label: imaging, actives raise or lower the signal
- Description: APR_HepG2_72hr is a cell-based, multiplexed-readout assay that uses HepG2, a human liver cell line, with measurements taken at 72 hours after chemical dosing in a 384-well plate.APR_HepG2_P-H2AX_72hr is one of 10 assay component(s) measured or calculated from the APR_HepG2_72hr assay. […] This assay endpoint, APR_HepG2_P-H2AX_72hr, was analyzed with bidirectional fitting relative to DMSO as the negative control and baseline of activity. […]
Activity calls are given as the source filed them. How the source made its calls: active means hit-call score of the fitted dose curve at least 0.9, where 1 is the maximum; inactive means score below 0.9.
Allowed answers: true (active), false (inactive)

Look over these answered cases.
compound=N#Cc1cc(Br)c(O)c(Br)c1 qualitative_label=false
compound=CCCCNC(=O)OCC#CI qualitative_label=false
compound=COc1nc(C)nc(NC(=O)NS(=O)(=O)c2ccccc2CCC(F)(F)F)n1 qualitative_label=false

Prompt: Look up the recorded call for `COP(=S)(OC)Oc1nc(Cl)c(Cl)cc1Cl` in this test.
Completion: false

Prompt: What outcome does the record of this test show for `CCOc1cc(Oc2ccc(C(F)(F)F)cc2Cl)ccc1[N+](=O)[O-]` ?
Completion: false

Prompt: Recorded test outcome, item N#CC(CCc1ccc(Cl)cc1)(Cn1cncn1)c1ccccc1 (centres undefined)
Completion: false

Prompt: Recorded test call requested for OC(c1ccc(Cl)cc1)(c1cncnc1)c1ccccc1Cl (centres undefined)
Completion: false

Prompt: Can you look up the reported call for Cc1c(F)c(F)c(COC(=O)C2C(/C=C(\Cl)C(F)(F)F)C2(C)C)c(F)c1F (centres undefined) for me?
Completion: false

Prompt: Hey, what did the test say about `Cc1cc(Cl)ccc1OCC(=O)O` ?
Completion: false

---

- Method description: ATG_PPRE_CIS: Attagene CIS-FACTORIAL HepG2 Assay for human Peroxisome Proliferator-activated Response Element (PPRE) (AID 2282958)
- Condition label: HepG2 PPRE cis-element reporter, Attagene transcription factor profiling; actives raise or lower the signal
Activity calls are given as the source filed them. How the source made its calls: active means hit-call score of the fitted dose curve at least 0.9, where 1 is the maximum; inactive means score below 0.9.
Choose the fitting class; nothing outside yes (1) = active, no (0) = inactive is accepted.

compound=CCc1nn(C)c(C(=O)NCc2ccc(C(C)(C)C)cc2)c1Cl qualitative_label="yes (1)"
compound=CCNc1nc(Cl)nc(NC(C)C)n1 qualitative_label="no (0)"
compound=CN(C)C(=S)SSC(=S)N(C)C qualitative_label="no (0)"
compound=CC(C)Oc1cc(-n2nc(C(C)(C)C)oc2=O)c(Cl)cc1Cl qualitative_label="no (0)"
compound="Cc1c(F)c(F)c(COC(=O)C2C(/C=C(\\Cl)C(F)(F)F)C2(C)C)c(F)c1F (stereo not drawn)" qualitative_label="no (0)"
compound=CO/C=C(/C(=O)OC)c1ccccc1Oc1cc(Oc2ccccc2C#N)ncn1 qualitative_label="no (0)"

Prompt: Just curious, what result did `Fc1ccc(Oc2ccnc3cc(Cl)cc(Cl)c23)cc1` get here?
Completion: yes (1)

Prompt: Dear colleague, could you share the recorded outcome for CCCC1COC(Cn2cncn2)(c2ccc(Cl)cc2Cl)O1 (stereo not drawn) when you have a moment?
Completion: no (0)

---

- Read-out: Cyclin Dependent Kinase Inhibitor 1A (CDKN1A), CDKN1A (gene 1026)
- Method description: LTEA_HepaRG_CDKN1A: Life Technologies and Expression Analysis (LTEA) Assay for Cyclin Dependent Kinase Inhibitor 1A (CDKN1A) using HepaRG (AID 2283450)
- Condition label: mRNA level, 48 h; actives raise or lower the signal
- Experimental: LTEA_HepaRG is a cell based, multiplexed-readout assay that uses HepaRG, a human liver cell line, with measurements taken at 48 hours after chemical dosing on a 96-well plate.LTEA_HepaRG_CDKN1A is one of 102 assay component(s) measured in the LTEA HepaRG cell culture assay. It is a marker of Cell proliferation, survival, death.Data from the assay component LTEA_HepaRG_CDKN1A was analyzed into 1 endpoint. […]
Calls of active or inactive are those of the source. Rule for the calls: active = hit-call score of the fitted dose curve at least 0.9, where 1 is the maximum; inactive = score below 0.9.
// classify into active, inactive

Use these answered entries as a reference point.
molecule=CC(C)Oc1cc(-n2nc(C(C)(C)C)oc2=O)c(Cl)cc1Cl qualitative_label=active
molecule="CC(Oc1ccc(Cl)cc1Cl)C(=O)O (centres undefined)" qualitative_label=inactive
molecule=CCNc1nc(Cl)nc(NC(C)C)n1 qualitative_label=inactive

Prompt: Answer briefly: the call reported for `Oc1ccccc1-c1ccccc1` in this assay.
Completion: inactive

Prompt: What was the test verdict on `CN(C)C(=S)SSC(=S)N(C)C` ?
Completion: inactive

Prompt: Recorded test outcome, item `Fc1ccc(Oc2ccnc3cc(Cl)cc(Cl)c23)cc1`
Completion: inactive

Prompt: Could you check what this test reported for `O=C(O)c1nc(Cl)ccc1Cl` ?
Completion: inactive

Prompt: Check the results log: what was the call for C#CCOS(=O)OC1CCCCC1Oc1ccc(C(C)(C)C)cc1 (centres undefined) ?
Completion: active

Prompt: Please share the test call associated with N#Cc1nn(-c2c(Cl)cc(C(F)(F)F)cc2Cl)c(N)c1S(=O)C(F)(F)F (centres undefined) .
Completion: active

---

- Read-out: Transforming Growth Factor (TGFB1), TGFB1 (gene 7040)
- Method description: LTEA_HepaRG_TGFB1: Life Technologies and Expression Analysis (LTEA) Assay for Transforming Growth Factor (TGFB1) Transporter using HepaRG (AID 2283533)
- Condition label: mRNA level, 48 h; actives raise or lower the signal
The source made the active and inactive calls. Rule for the calls: active = hit-call score of the fitted dose curve at least 0.9, where 1 is the maximum; inactive = score below 0.9.
Reported metric: AC50

compound="CCCCC(CC)COC(=O)c1ccccc1C(=O)OCC(CC)CCCC (stereo not given)" reported=inactive
compound=CC(C)(C)c1ccc(CSc2cnn(C(C)(C)C)c(=O)c2Cl)cc1 reported=inactive
compound="CCCC1COC(Cn2cncn2)(c2ccc(Cl)cc2Cl)O1 (stereo not given)" reported="27.3 µM (active)"
compound="CCOC(=O)CC(SP(=S)(OC)OC)C(=O)OCC (stereo not given)" reported=inactive

Prompt: Consider the compound shown here: N#CC(CCc1ccc(Cl)cc1)(Cn1cncn1)c1ccccc1 (stereo not given) What is its recorded AC50?
Completion: 66.7 µM (active)

---

- Read-out: Cytochrome P450 3A7 (Homo sapiens) (UniProt P24462)
- Sequence (P24462 whole entry, looked up): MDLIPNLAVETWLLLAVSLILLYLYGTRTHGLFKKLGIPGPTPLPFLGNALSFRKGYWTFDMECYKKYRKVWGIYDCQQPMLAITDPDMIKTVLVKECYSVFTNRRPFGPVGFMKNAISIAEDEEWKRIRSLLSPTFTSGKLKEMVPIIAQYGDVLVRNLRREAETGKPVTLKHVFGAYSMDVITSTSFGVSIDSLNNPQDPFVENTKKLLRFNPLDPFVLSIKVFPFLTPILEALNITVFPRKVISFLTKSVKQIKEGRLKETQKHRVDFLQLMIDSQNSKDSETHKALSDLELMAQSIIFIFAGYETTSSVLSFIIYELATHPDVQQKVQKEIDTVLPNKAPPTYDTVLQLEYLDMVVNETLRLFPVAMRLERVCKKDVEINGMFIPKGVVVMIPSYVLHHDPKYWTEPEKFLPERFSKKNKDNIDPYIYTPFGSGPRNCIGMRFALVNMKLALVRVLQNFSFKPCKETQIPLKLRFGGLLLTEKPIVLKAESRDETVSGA
- Method description: LTEA_HepaRG_CYP3A7: Life Technologies and Expression Analysis (LTEA) Assay for CYP3A7 using HepaRG (AID 2283492)
- Condition label: mRNA level, 48 h; actives raise or lower the signal
The source made the active and inactive calls. The calls were made as follows: active = hit-call score of the fitted dose curve at least 0.9, where 1 is the maximum; inactive = score below 0.9.
Pick from active, inactive when you respond.

compound=COP(=S)(OC)Oc1nc(Cl)c(Cl)cc1Cl qualitative_label=inactive
compound=COC(=O)C=C(C)OP(=O)(OC)OC qualitative_label=inactive
compound="COP(N)(=O)SC (stereo not drawn)" qualitative_label=inactive
compound=Oc1ccccc1-c1ccccc1 qualitative_label=inactive

Prompt: Write down the call the test reported for this compound. Item: `CCOP(=S)(OCC)SCn1c(=O)oc2cc(Cl)ccc21`
Completion: inactive

Prompt: Fill in: this test's call for C=CC1(C)OC(=O)N(c2cc(Cl)cc(Cl)c2)C1=O (stereo not drawn) is ___
Completion: active

Prompt: Outcome logged for `CCCCNC(=O)OCC#CI` in this assay:
Completion: active

Prompt: Returns: the outcome recorded for `COc1ccc(C(c2ccc(OC)cc2)C(Cl)(Cl)Cl)cc1` in this assay.
Completion: inactive

---

- Read-out: alkyl and aryl transferase (GSTA2), GSTA2 (gene 2939)
- Method description: CLD_GSTA2_48hr: CellzDirect (CLD) Gene Expression Assay for alkyl and aryl transferase (GSTA2) at 48 hours (AID 2283708);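 further: active means mRNA induction above DMSO vehicle baseline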
Records with an inconclusive call do not appear. Activity calls are given as the source filed them. How the source made its calls: active means hit-call score of the fitted dose curve at least 0.9, where 1 is the maximum; inconclusive means response in the unintended direction; inactive means score below 0.9.
Outcomes you can answer with include only these: True = active, False = inactive

Look over these answered cases.
compound="OC(c1ccc(Cl)cc1)(c1cncnc1)c1ccccc1Cl (configuration not stated)" qualitative_label=True
compound=CCOc1cc(Oc2ccc(C(F)(F)F)cc2Cl)ccc1[N+](=O)[O-] qualitative_label=False
compound=CNC(=S)S qualitative_label=False
compound=CNC(=O)ON=CC(C)(C)SC qualitative_label=False
compound=CC(C)(C)c1ccc(CSc2cnn(C(C)(C)C)c(=O)c2Cl)cc1 qualitative_label=False
compound="CCCC1COC(Cn2cncn2)(c2ccc(Cl)cc2Cl)O1 (configuration not stated)" qualitative_label=False

Then this compound:
Prompt: Kindly provide the recorded test outcome for the following compound: CC(Oc1ccc(Cl)cc1Cl)C(=O)O (configuration not stated)
Completion: False

---

- Method description: APR_HepG2_MitoticArrest_1hr: Apredica 1-hour HepG2 Assay for Mitotic Arrest (AID 2282672)
- Condition label: high-content imaging, actives raise or lower the signal
The source made the active and inactive calls. The calls were made as follows: active = hit-call score of the fitted dose curve at least 0.9, where 1 is the maximum; inactive = score below 0.9.
// one of yes = active, no = inactive, no free text

Some solved entries appear below for comparison.
compound=CC1=C(C(=O)Nc2ccccc2)SCCO1 qualitative_label=no
compound=COC(=O)C=C(C)OP(=O)(OC)OC qualitative_label=no
compound=CC(C)(C)c1ccc(CSc2cnn(C(C)(C)C)c(=O)c2Cl)cc1 qualitative_label=no
compound="CCON=C(CC)C1=C(O)CC(c2c(C)cc(C)cc2C)CC1=O (stereo unspecified)" qualitative_label=no
compound=Cc1ccc(-c2c(Cl)nc(C#N)n2S(=O)(=O)N(C)C)cc1 qualitative_label=no
compound="C=CCC1=C(C)C(OC(=O)C2C(C=C(C)C)C2(C)C)CC1=O (stereo unspecified)" qualitative_label=no

Prompt: Fill in: this test's call for `COc1ccc(C(c2ccc(OC)cc2)C(Cl)(Cl)Cl)cc1` is ___
Completion: no
